System: Histophilus somni
measurement-protocol: minimum inhibitory concentration (MIC)
condition: isolate (source animal id): 18
readout: minimum inhibitory concentration

Below are worked cases with known answers.
{"columns": ["chemical-structure", "target-desc", "minimum inhibitory concentration"],
 "data": [
  ["CCCNC[C@]1(O)[C@H](C)O[C@@H](O[C@H]2[C@H](C)[C@@H](O[C@@H]3O[C@H](C)C[C@H](N(C)C)[C@H]3O)[C@](C)(O)C[C@@H](C)CN[C@H](C)[C@@H](O)[C@](C)(O)[C@@H](CC)OC(=O)[C@@H]2C)C[C@@]1(C)OC", "Histophilus somni", "≤ 8 mg/L"],
  ["CN[C@@H]1[C@H](O)[C@H](NC)[C@H]2O[C@@]3(O)C(=O)C[C@@H](C)O[C@H]3O[C@@H]2[C@H]1O", "Histophilus somni", "> 64 mg/L"],
  ["CCN1CCN(c2cc3c(cc2F)c(=O)c(C(=O)O)cn3C2CC2)CC1", "Histophilus somni", "≤ 0.12 mg/L"],
  ["CC[C@H]1OC(=O)C[C@@H](O)[C@H](C)[C@@H](O[C@@H]2O[C@H](C)[C@@H](O[C@H]3C[C@@](C)(O)[C@@H](O)[C@H](C)O3)[C@H](N(C)C)[C@H]2O)[C@@H](CC=O)C[C@@H](C)C(=O)/C=C/C(C)=C/[C@@H]1CO[C@@H]1O[C@H](C)[C@@H](O)[C@@H](OC)[C@H]1OC", "Histophilus somni", "8 mg/L"]
]}

GET /value?item= `CC1(C)S[C@@H]2[C@H](NC(=O)Cc3ccccc3)C(=O)N2[C@H]1C(=O)O` &field=minimum inhibitory concentration returns ≤ 0.12 mg/L

* * *

Tested on: Histophilus somni
measurement-protocol: minimum inhibitory concentration (MIC)
condition: isolate (source animal id): 7
readout: minimum inhibitory concentration

Below are worked cases with known answers.
{"columns": ["compound", "target-desc", "readout", "result"],
 "data": [
  ["CCCNC[C@]1(O)[C@H](C)O[C@@H](O[C@H]2[C@H](C)[C@@H](O[C@@H]3O[C@H](C)C[C@H](N(C)C)[C@H]3O)[C@](C)(O)C[C@@H](C)CN[C@H](C)[C@@H](O)[C@](C)(O)[C@@H](CC)OC(=O)[C@@H]2C)C[C@@]1(C)OC [Tulathromycin]", "Histophilus somni", "minimum inhibitory concentration", "≤ 8 µg/mL"],
  ["CN(C)[C@@H]1C(O)=C(C(N)=O)C(=O)[C@@]2(O)C(O)=C3C(=O)c4c(O)cccc4[C@@](C)(O)[C@H]3C[C@@H]12 [Tetracycline]", "Histophilus somni", "minimum inhibitory concentration", "8 µg/mL"],
  ["COc1cc(NS(=O)(=O)c2ccc(N)cc2)nc(OC)n1 [sulfadimethoxine]", "Histophilus somni", "minimum inhibitory concentration", "≤ 256 µg/mL"],
  ["CC[C@H]1OC(=O)C[C@@H](O)[C@H](C)[C@@H](O[C@@H]2O[C@H](C)[C@@H](O)[C@H](N(C)C)[C@H]2O)[C@@H](CCN2C[C@H](C)C[C@H](C)C2)C[C@@H](C)C(=O)/C=C/C(C)=C/[C@@H]1CO[C@@H]1O[C@H](C)[C@@H](O)[C@@H](OC)[C@H]1OC [Tilmicosin]", "Histophilus somni", "minimum inhibitory concentration", "≤ 2 µg/mL"],
  ["CN[C@@H]1[C@H](O)[C@H](NC)[C@H]2O[C@@]3(O)C(=O)C[C@@H](C)O[C@H]3O[C@@H]2[C@H]1O [Spectinomycin]", "Histophilus somni", "minimum inhibitory concentration", "≤ 8 µg/mL"],
  ["CC1(C)S[C@@H]2[C@H](NC(=O)[C@H](N)c3ccccc3)C(=O)N2[C@H]1C(=O)O [Ampicillin]", "Histophilus somni", "minimum inhibitory concentration", "≤ 0.25 µg/mL"],
  ["CNC(C)C1CCC(N)C(OC2C(N)CC(N)C(OC3OCC(C)(O)C(NC)C3O)C2O)O1 (stereo not drawn) [Gentamicin]", "Histophilus somni", "minimum inhibitory concentration", "4 µg/mL"]
]}

Kindly consider the entry below.
Measured minimum inhibitory concentration (Histophilus somni), entry CCCN1C[C@H](C)[C@@H](O)[C@](C)(O)[C@@H](CC)OC(=O)[C@H](C)[C@@H](O[C@H]2C[C@@](C)(OC)[C@@H](O)[C@H](C)O2)[C@H](C)[C@@H](O[C@@H]2O[C@H](C)C[C@H](N(C)C)[C@H]2O)[C@](C)(O)C[C@H]1C [Gamithromycin] : ≤ 1 µg/mL

* * *

Readings of minimum inhibitory concentration for the listed molecules
System: Pasteurella multocida
measurement-protocol: minimum inhibitory concentration (MIC)
condition: isolate (source animal id): 177

{"columns": ["chemical-structure", "minimum inhibitory concentration"],
 "data": [
  ["CN[C@@H]1[C@H](O)[C@H](NC)[C@H]2O[C@@]3(O)C(=O)C[C@@H](C)O[C@H]3O[C@@H]2[C@H]1O", "> 64 µg/mL"]
]}

GET /value?item= `NC[C@@H]1O[C@H](O[C@H]2[C@@H](O)[C@H](O[C@@H]3[C@@H](O)[C@H](N)C[C@H](N)[C@H]3O[C@H]3O[C@H](CN)[C@@H](O)[C@H](O)[C@H]3N)O[C@@H]2CO)[C@H](N)[C@@H](O)[C@@H]1O` &field=minimum inhibitory concentration returns 16 µg/mL

GET /value?item= `CS(=O)(=O)c1ccc([C@@H](O)[C@@H](CF)NC(=O)C(Cl)Cl)cc1` &field=minimum inhibitory concentration returns 0.5 µg/mL

GET /value?item= `CO/N=C(\C(=O)N[C@@H]1C(=O)N2C(C(=O)O)=C(CSC(=O)c3ccco3)CS[C@H]12)c1csc(N)n1` &field=minimum inhibitory concentration returns ≤ 0.25 µg/mL

GET /value?item= `CCCNC[C@]1(O)[C@H](C)O[C@@H](O[C@H]2[C@H](C)[C@@H](O[C@@H]3O[C@H](C)C[C@H](N(C)C)[C@H]3O)[C@](C)(O)C[C@@H](C)CN[C@H](C)[C@@H](O)[C@](C)(O)[C@@H](CC)OC(=O)[C@@H]2C)C[C@@]1(C)OC` &field=minimum inhibitory concentration returns ≤ 8 µg/mL

GET /value?item= `CC[C@H]1OC(=O)C[C@@H](O)[C@H](C)[C@@H](O[C@@H]2O[C@H](C)[C@@H](O)[C@H](N(C)C)[C@H]2O)[C@@H](CCN2CCCCC2)C[C@@H](C)C(=O)/C=C/C(C)=C/[C@@H]1CN1CCCCC1` &field=minimum inhibitory concentration returns ≤ 1 µg/mL

* * *

Test system: Mannheimia haemolytica
measurement-protocol: minimum inhibitory concentration (MIC)
condition: isolate (source animal id): 36
readout: minimum inhibitory concentration (µg/mL)
Note: unit µg/mL is implicit; provide only the numeric part.

{"columns": ["compound", "target-desc", "value-units", "numeric-result"],
 "data": [
  ["C=C[C@]1(C)C[C@@H](OC(=O)CSCCN(CC)CC)[C@]2(C)[C@H](C)CC[C@]3(CCC(=O)[C@H]32)[C@@H](C)[C@@H]1O [Tiamulin]", "Mannheimia haemolytica", "µg/mL", 32]
]}

Kindly consider the entry below.
Measured minimum inhibitory concentration (Mannheimia haemolytica), entry CCCN1C[C@H](C)[C@@H](O)[C@](C)(O)[C@@H](CC)OC(=O)[C@H](C)[C@@H](O[C@H]2C[C@@](C)(OC)[C@@H](O)[C@H](C)O2)[C@H](C)[C@@H](O[C@@H]2O[C@H](C)C[C@H](N(C)C)[C@H]2O)[C@](C)(O)C[C@H]1C [Gamithromycin] : 4

* * *

Readings of minimum inhibitory concentration for the listed compounds
System: Enterococcus spp.
measurement-protocol: minimum inhibitory concentration (MIC)
condition: isolate (source animal id): 333
Note: unit µg/mL is implicit; provide only the numeric part.

{"columns": ["chemical-structure", "value-units", "minimum inhibitory concentration"],
 "data": [
  ["CC[C@H]1OC(=O)C[C@@H](O)[C@H](C)[C@@H](O[C@@H]2O[C@H](C)[C@@H](O[C@H]3C[C@@](C)(O)[C@@H](O)[C@H](C)O3)[C@H](N(C)C)[C@H]2O)[C@@H](CC=O)C[C@@H](C)C(=O)/C=C/C(C)=C/[C@@H]1CO[C@@H]1O[C@H](C)[C@@H](O)[C@@H](OC)[C@H]1OC", "µg/mL", 2],
  ["CC[C@H]1OC(=O)C[C@@H](O)[C@H](C)[C@@H](O[C@@H]2O[C@H](C)[C@@H](O)[C@H](N(C)C)[C@H]2O)[C@@H](CCN2CCCCC2)C[C@@H](C)C(=O)/C=C/C(C)=C/[C@@H]1CN1CCCCC1", "µg/mL", 16]
]}

Kindly consider the entry below.
Measured minimum inhibitory concentration (Enterococcus spp.), entry `CN[C@@H]1[C@H](O)[C@H](NC)[C@H]2O[C@@]3(O)C(=O)C[C@@H](C)O[C@H]3O[C@@H]2[C@H]1O` : 64
